Tested on: SNB-19
Test: NCI tumour cell line growth inhibition, 48 h
Active and inactive are the calls of the source. Rule as the data show it: active = GI50 up to about 1.1 µM and inactive = higher.
Classes used: 1.0 (active), 0.0 (inactive)

[
  {
    "compound": "O=C(CCc1n[nH]c(=S)o1)Nc1cc(Cl)c(Cl)cc1Cl",
    "assayed_system": "SNB-19",
    "label_value": 0.0
  },
  {
    "compound": "C(=N\\c1nc2cc3sc(/N=C/c4ccccc4)nc3cc2s1)/c1ccccc1",
    "assayed_system": "SNB-19",
    "label_value": 0.0
  },
  {
    "compound": "CC1=NN(c2nc(N)nc(CSc3cc(Cl)c(C)cc3S(N)(=O)=O)n2)C(C)(C)C1",
    "assayed_system": "SNB-19",
    "label_value": 0.0
  },
  {
    "compound": "CCCCCCCCCCCCCCCCOP(=O)(O)OP(=O)(O)OCC1OC(n2cnc3c(N)ncnc32)C(O)C1O (stereo not given)",
    "assayed_system": "SNB-19",
    "label_value": 0.0
  },
  {
    "compound": "N=C(N)N/N=C(\\c1ccc(F)cc1)c1ccc(C(F)(F)F)cc1",
    "assayed_system": "SNB-19",
    "label_value": 1.0
  }
]
